Molecular target: CXCR3-A (Homo sapiens, UniProt P49682)
Construct: full-length human CXCR3-A (isoform A) in membrane fragments of transfected U87 and HEK-293 cells
Sequence (P49682 1-368): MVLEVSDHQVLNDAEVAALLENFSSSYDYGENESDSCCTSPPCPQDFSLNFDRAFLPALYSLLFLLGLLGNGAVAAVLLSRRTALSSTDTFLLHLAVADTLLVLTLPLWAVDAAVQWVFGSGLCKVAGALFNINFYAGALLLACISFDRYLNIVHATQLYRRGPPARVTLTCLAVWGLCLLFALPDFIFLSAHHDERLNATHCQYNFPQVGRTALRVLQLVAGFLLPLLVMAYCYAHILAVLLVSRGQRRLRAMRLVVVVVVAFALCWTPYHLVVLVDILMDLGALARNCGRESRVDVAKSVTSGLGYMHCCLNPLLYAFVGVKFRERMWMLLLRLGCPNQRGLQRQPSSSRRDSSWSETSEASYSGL
Experiment: plasmon waveguide resonance on captured cell membrane fragments; no spectral change with U87-CTRL fragments
Type: binding
readoutKind: Kd (nM)
State just the number; it will be interpreted in nM.

Q) # lookup: Kd of NC(N)=NCCC[C@H](NC(=O)[C@@H]1Cc2ccccc2CN1C(=O)CCC(=O)c1ccccc1)C(=O)NCC1CCCCC1 [PS372424]
A) 36
